Molecular target: BRD9 bromodomain (Homo sapiens)
Construct: His; purchased Reaction Biology RD-11-214
Sequence (Q9H8M2 136-240 limits assumed): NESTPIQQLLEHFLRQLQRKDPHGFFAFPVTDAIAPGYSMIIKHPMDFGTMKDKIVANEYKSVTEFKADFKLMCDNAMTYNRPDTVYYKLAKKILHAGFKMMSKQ
Test: AlphaScreen assay with BRD9 bromodomain and biotinylated histone H4 KAc5,8,12,16 peptide
Type: binding
Conditions: AlphaScreen; average of two technical replicates with N = 2 unless otherwise indicated; read-out: BRD9 BD IC50
QUANTITY_MEASURED: IC50 (nM)

COMPOUND	UNIT_LABEL	RECORDED_NUMBER
Cn1ncc(Nc2ccc3c(c2)CN(CCOCCOCCNC(=O)COc2cccc4c2C(=O)N(C2CCC(=O)NC2=O)C4=O)CC3)c(Cl)c1=O (centres unmarked) [Compound 6]	nM	18

(P) Cn1ncc(Nc2ccc3c(c2)CCN(CCCCCCNC(=O)COc2cccc4c2C(=O)N(C2CCC(=O)NC2=O)C4=O)C3)c(Cl)c1=O (centres unmarked) [Compound 3]
(Q) Cn1ncc(Nc2ccc3c(c2)CN(CCCCCCNC(=O)COc2cccc4c2C(=O)N(C2CCC(=O)NC2=O)C4=O)CC3)c(Cl)c1=O (centres unmarked) [Compound 4]
(R) Cn1ncc(Nc2ccc3c(c2)CNCC3)c(Cl)c1=O [Compound 2]
(S) Cn1ncc(Nc2ccc3c(c2)CCN(CCOCCOCCNC(=O)COc2cccc4c2C(=O)N(C2CCC(=O)NC2=O)C4=O)C3)c(Cl)c1=O (centres unmarked) [Compound 5]
*Q* Put the items in order so that reported IC50 rises from first to last. Put the labels in the order asked and list them.
*A* P, S, Q, R
(P: 21 nM, S: 63 nM, Q: 98 nM, R: 300 nM)
